System Under Test: MS2 coat protein, dlFG mutant (Escherichia phage MS2, UniProt P03612, del68-81insG)
Assay Overview: 4 mM Mg2+; FMN 200 uM; RNA-MaP array; 100 mM Tris-HCl pH 7.5, 80 mM KCl, 4 mM MgCl2, 0.1 mg/mL BSA, 1 mM DTT, 0.01 mg/mL yeast tRNA, 0.01% Tween-20; protein 1.5 nM to 3 uM; 37 C (Table S3)
Experimental Parameters: chain copies: 2; label: tethered by stalled RNA polymerase
Reported Endpoint: pKd
pKd is defined as minus the log10 of a concentration measured in mol/L.

Request: State its pKd for this binder: Eterna 6429692 (Inverted Same State NG 1) (ssRNA) RNA: AUCAUGCUCAAGAAGGACAUGAGGAUCACCCAUGUAGGAUAUUGGGCGGUCACUUCUAGCUUGUGUGUAUCUGAAUACUCCAGG
Response: 8.12

# input for lookup
Request: Annotate the binder Eterna 6429508 (Inverted Exclusion NG 3) (ssRNA) RNA: GGGUGCCCUGCAGAAGCGACAUGAGGAUCACCCAUGUAACGUAGAAGGGCCCGGAACUAAGGUGGGCAGGAUAUACUGUUAGGU with its measured pKd.
Response: 8.14
